Origin of the recorded values: the supplement of paper PMC6757056

Kindly state normalized RNA/DNA level without ligand (log10) for each of the entries shown.
B1: library; a variant is named by its letters at N, in order (parent)
chain: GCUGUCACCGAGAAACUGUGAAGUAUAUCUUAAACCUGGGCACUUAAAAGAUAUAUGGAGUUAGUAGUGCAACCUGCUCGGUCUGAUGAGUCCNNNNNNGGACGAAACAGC

variants of: B1; experiment: normalized RNA/DNA level without ligand (relative to sTRSVctl = 100) (log10 (% of sTRSVctl)); HEK293T; ligand: cyclic di-GMP (c-di-GMP-II aptamer); higher = less ribozyme self-cleavage, higher mRNA level; details: reporter: mCherry (pCS4076), ligand present: no
Numbers only.

[[record]]
variant_notation = "GCAGCG"
assay_result = 1.83

[[record]]
variant_notation = "ACGGUC"
assay_result = 1.64

[[record]]
variant_notation = "CUUUAA"
assay_result = 1.32

[[record]]
variant_notation = "GCGUAA"
assay_result = 1.44

[[record]]
variant_notation = "AUCAAC"
assay_result = 1.61


Please give normalized RNA/DNA level without ligand (log10), item by item, for the list that follows.
1. GCAAAU
2. GGUUUA
3. AACCGA
4. UGUCUU
5. CGACUA
6. CUUUUC
7. AAUUAA

[1.39, 1.58, 1.5, 1.73, 1.35, 1.73, 1.51]

Please give normalized RNA/DNA level without ligand (log10), item by item, for the list that follows.
1. ACUGGG
2. UGAUUU
3. CAGUUU
4. UACAGG
5. GGCCAG
6. AGUAGU

1. 1.58
2. 1.69
3. 1.5
4. 1.65
5. 1.74
6. 1.64

Please give normalized RNA/DNA level without ligand (log10), item by item, for the list that follows.
1. GUACCG
2. CCGGGG
3. CCCCUG

1.77
1.43
1.69

Please give normalized RNA/DNA level without ligand (log10), item by item, for the list that follows.
1. GUGACA
2. AUUCCU
3. AAUAAC
4. UAAGGC
5. UAGCCA
6. UCAGAC
7. CGAGCA
8. GACCCC

1.67
1.74
1.63
1.66
1.71
1.63
1.83
1.8

Please give normalized RNA/DNA level without ligand (log10), item by item, for the list that follows.
1. GGGAAA
2. ACCUUC
3. CAGCGU
4. CAGUAA
5. AUAGAC
6. ACUCCA

1. 1.46
2. 1.74
3. 1.7
4. 1.14
5. 1.61
6. 1.7

Please give normalized RNA/DNA level without ligand (log10), item by item, for the list that follows.
1. UGUAAA
2. CACCAU
3. GGCGCA
4. UCUAUA
5. UUCAGA
6. UCUUCG

1: 1.72; 2: 1.59; 3: 1.86; 4: 1.56; 5: 1.7; 6: 1.79

Please give normalized RNA/DNA level without ligand (log10), item by item, for the list that follows.
1. AAGCUU
2. UUAUUG
3. AGUGAG
4. UACCUU
5. CAAGGU

[1.7, 1.7, 1.52, 1.64, 1.64]

Please give normalized RNA/DNA level without ligand (log10), item by item, for the list that follows.
1. UGUCUC
2. CGACUU

1. 1.79
2. 1.44
